# subject of test: HCV polymerase (NS5B) type 1b (Hepatitis C virus genotype 1b, UniProt P26663)
# Construct: a region encoding NS5B (J Virol 1991 March, 65(3), 1105-13, 544 amino acids after deletion of 47 amino acids on the C-terminal); 6xHis (C); made in house; host or cells: Escherichia coli
# test name: Assay of enzyme (HCV polymerase) inhibitory activity, type 1b enzyme
# Format: biochemical, HCV BK strain (type 1b)
# reported conditions: HCV polymerase inhibitory activity IC50, 1b, type 1b enzyme
Below is a list of entries, each paired with its recorded IC50 value.
measured attribute: IC50

>>> measured_result("O=C(NCc1ccc(OC(F)(F)F)cc1)[C@H]1CN(c2nc3nccnc3s2)CCN1S(=O)(=O)c1ccc(OC(F)(F)F)cc1")
"< 100 nM"
>>> measured_result("O=C(NCc1ccc(OC(F)F)cc1F)[C@H]1CN(c2nc3nc(C4CC4)ncc3s2)CCN1S(=O)(=O)c1ccc(C(F)(F)F)cc1")
"< 100 nM"
>>> measured_result("O=C(NCc1ccc(OC(F)(F)F)cc1)[C@H]1CN(c2nc3nc(C4CCC4)ncc3s2)CCN1S(=O)(=O)c1ccc(C(F)(F)F)cc1")
"< 100 nM"
>>> measured_result("O=C(NCC12CC3CC(CC(C3)C1)C2)[C@H]1CN(c2cnc3cncnc3n2)CCN1S(=O)(=O)c1ccc(OC(F)(F)F)cc1")
"> 1000 nM"
>>> measured_result("CCC(F)(F)c1ccc(CNC(=O)[C@H]2CN(c3cnc4cncnc4n3)CCN2S(=O)(=O)c2ccc3c(c2)CCC(CC(=O)O)CC3)cc1 (stereo partly drawn)")
"< 100 nM"
>>> measured_result("COc1ccc(CCNC(=O)[C@H]2CN(C(C)=O)CCN2S(=O)(=O)c2ccc(OC(F)(F)F)cc2)cc1")
"> 1000 nM"

###

# subject of test: HCV polymerase (NS5B) type 1a (Hepatitis C virus genotype 1a, UniProt P26664)
# Construct: made in house; host or cells: Escherichia coli (by the 'similar method' of the 1b enzyme)
# test name: Assay of enzyme (HCV polymerase) inhibitory activity, type 1a enzyme
# Assay type: biochemical, HCV type 1a (cloned from the blood of patients)
# reported conditions: HCV polymerase inhibitory activity IC50, 1a, type 1a enzyme
measured attribute: IC50

>>> measured_result("CC(=O)c1ncc2sc(N3CCN(S(=O)(=O)c4ccc(OC(F)(F)F)cc4)[C@@H](C(=O)NCc4ccc(OC(F)(F)F)cc4)C3)nc2n1")
"< 100 nM"
>>> measured_result("CCCc1ccc(CNC(=O)[C@H]2CN(c3cnc4cncc(C(=O)O)c4n3)CCN2S(=O)(=O)c2ccc(Cl)cc2)cc1")
"< 100 nM"
>>> measured_result("CCCc1ccc(CNC(=O)[C@H]2CN(c3cnc4cncc(C(=O)O)c4n3)CCN2S(=O)(=O)c2ccc(C(C)(C)C)cc2)cc1")
"< 100 nM"

###

Below is a list of entries, each paired with its recorded pIC50 value.
# subject of test: HCV polymerase (NS5B) type 1a (Hepatitis C virus genotype 1a, UniProt P26664)
# Construct: made in house; host or cells: Escherichia coli (by the 'similar method' of the 1b enzyme)
# test name: Assay of enzyme (HCV polymerase) inhibitory activity, type 1a enzyme
# Type: biochemical, HCV type 1a (cloned from the blood of patients)
# reported conditions: HCV polymerase inhibitory activity IC50, 1a, type 1a enzyme
pIC50: −log10 of the molar value.
measured attribute: pIC50

>>> measured_result("O=C(O)c1cncc2ncc(N3CCN(S(=O)(=O)c4ccc(OC(F)(F)F)cc4)[C@@H](C(=O)NCc4ccc(OC(F)(F)F)cc4)C3)nc12 [Example 806]")
"> 7.00"
>>> measured_result("CCCc1ccc(CNC(=O)[C@H]2CN(c3nc4c(C(=O)O)cncc4s3)CCN2S(=O)(=O)c2ccc(OC(F)(F)F)cc2)cc1 [Example 1084]")
"> 7.00"
>>> measured_result("CC(=O)N1CCN(S(=O)(=O)c2ccc(C(C)C)cc2)[C@@H](C(=O)NCc2ccc(C(F)(F)F)cc2)C1 [Example 1116]")
"6.00 to 7.00"
>>> measured_result("Cc1nc(N)c2sc(N3CCN(S(=O)(=O)c4ccc(OC(F)(F)F)cc4)[C@@H](C(=O)NCc4ccc(OC(F)(F)F)cc4)C3)nc2n1 [Example 982]")
"> 7.00"
>>> measured_result("CCc1ncc2sc(N3CCN(S(=O)(=O)c4ccc(OC(F)(F)F)cc4)[C@@H](C(=O)NCc4ccc(OC(F)(F)F)cc4)C3)nc2n1 [Example 949]")
"> 7.00"
>>> measured_result("Cc1n[nH]c(=O)c2sc(N3CCN(S(=O)(=O)c4ccc(C(F)(F)F)cc4)[C@@H](C(=O)NCc4ccc(OC(F)(F)F)cc4)C3)nc12 [Example 893]")
"> 7.00"

###

Below is a list of entries, each paired with its recorded IC50 value.
# subject of test: HCV polymerase (NS5B) type 1a (Hepatitis C virus genotype 1a)
# Construct: made in house; host or cells: Escherichia coli (by the 'similar method' of the 1b enzyme)
# test name: Assay of enzyme (HCV polymerase) inhibitory activity, type 1a enzyme
# Assay type: biochemical, HCV type 1a (cloned from the blood of patients)
# reported conditions: HCV polymerase inhibitory activity (IC50), 1a, type 1a enzyme 1.5 μg/ml, 25° C., 60 min
measured attribute: IC50

>>> measured_result("CCCc1ccc(S(=O)(=O)N2CCN(c3cnc(C(=O)O)cn3)C[C@@H]2C(=O)NCc2ccc(CCC)cc2C)cc1")
"< 0.1 µM"
>>> measured_result("CCCc1ccc(CNC(=O)[C@H]2CN(C(C)=O)CCN2S(=O)(=O)c2ccc(C(C)C)cc2)c(C)c1")
"< 0.1 µM"
>>> measured_result("CCOC(=O)Cn1nnnc1CC(=O)N1CCN(S(=O)(=O)c2ccc(OC(F)(F)F)cc2)[C@@H](C(=O)NCc2ccc(C(F)(F)CC)cc2)C1")
"> 1 µM"
>>> measured_result("CC(=O)N1CCN(S(=O)(=O)c2ccc(C(C)C)cc2)C(C(=O)NCc2ccccc2F)C1 (stereo not drawn)")
"> 1 µM"
>>> measured_result("CCCc1ccc(S(=O)(=O)N2CCN(c3nc(C)c(C(=O)OC(C)(C)C)s3)C[C@@H]2C(=O)NCc2ccc(C(C)C)cc2)cc1")
"> 1 µM"
>>> measured_result("Cc1nc(N2CCN(S(=O)(=O)c3ccc(OC(F)(F)F)cc3)[C@@H](C(=O)NCc3ccc(C(C)(C)C)cc3)C2)sc1-c1nnn[nH]1")
"< 0.1 µM"

###

Below is a list of entries, each paired with its recorded pIC50 value.
# subject of test: HCV polymerase (NS5B) type 1b (Hepatitis C virus genotype 1b, UniProt P26663)
# Construct: a region encoding NS5B (J Virol 1991 March, 65(3), 1105-13, 544 amino acids after deletion of 47 amino acids on the C-terminal); 6xHis (C); made in house; host or cells: Escherichia coli
# test name: Assay of enzyme (HCV polymerase) inhibitory activity, type 1b enzyme
# Type: biochemical, HCV BK strain (type 1b)
# reported conditions: HCV polymerase inhibitory activity IC50, 1b, type 1b enzyme
pIC50: −log10 of the molar value.
measured attribute: pIC50

>>> measured_result("Cc1ncc2sc(N3CCN(S(=O)(=O)c4ccc(OC(F)(F)F)cc4)[C@@H](C(=O)NCc4ccc(OC(F)(F)F)cc4)C3)nc2n1")
"> 7.00"
>>> measured_result("CCC(F)(F)c1ccc(CNC(=O)[C@H]2CN(c3cnc4cncnc4n3)CCN2S(=O)(=O)c2ccc(I)cc2)cc1")
"> 7.00"
>>> measured_result("CC(=O)N1CCN(S(=O)(=O)c2ccc(OC(F)(F)F)cc2)[C@@H](C(=O)NCCc2ccccc2O)C1")
"< 6.00"
>>> measured_result("Cc1n[nH]c(=O)c2sc(N3CCN(S(=O)(=O)c4ccc(C(F)(F)F)cc4)[C@@H](C(=O)NCc4ccc(OC(F)(F)F)cc4)C3)nc12")
"> 7.00"
>>> measured_result("CCCc1ccc(CNC(=O)[C@H]2CN(c3cnc4c(C(=O)O)cccc4n3)CCN2S(=O)(=O)c2ccc(CC)cc2)cc1")
"> 7.00"
>>> measured_result("CCC(F)(F)c1ccc(CNC(=O)[C@H]2CN(c3cnc4cncnc4n3)CCN2S(=O)(=O)c2ccc(-c3ccccc3OCC(=O)O)cc2)cc1")
"> 7.00"

###

# subject of test: HCV polymerase (NS5B) type 1a (Hepatitis C virus genotype 1a)
# Construct: made in house; host or cells: Escherichia coli (by the 'similar method' of the 1b enzyme)
# test name: Assay of enzyme (HCV polymerase) inhibitory activity, type 1a enzyme
# Format: biochemical, HCV type 1a (cloned from the blood of patients)
# reported conditions: HCV polymerase inhibitory activity IC50, 1a, type 1a enzyme
# Experimental: The evaluation of the HCV polymerase inhibitory activity of the compound of the present invention is explained in the following. This polymerase is an enzyme coded for by the non-structural protein region called NS5B on the genome RNA of HCV. i) Preparation of Enzyme (HCV Polymerase) […] The HCV polymerase inhibitory activity (IC50) of the compound of the present invention was calculated from the values of radioactivity of the enzyme reaction with and without the test substance. […]
Below is a list of entries, each paired with its recorded IC50 value.
measured attribute: IC50

>>> measured_result("Cc1nc2nc(N3CCN(S(=O)(=O)c4ccc(OC(F)(F)F)cc4)[C@@H](C(=O)NCc4ccc(OC(F)(F)F)cc4)C3)sc2c(=O)[nH]1 [Example 910]")
"< 100 nM"
>>> measured_result("Cc1cc(=O)nc2sc(N3CCN(S(=O)(=O)c4ccc(OC(F)(F)F)cc4)[C@@H](C(=O)NCc4ccc(OC(F)F)cc4)C3)nn12 [Example 1027]")
"< 100 nM"
>>> measured_result("O=C(NCc1ccc(OC(F)(F)F)cc1)[C@H]1CN(c2nc3nc(C(F)(F)F)ncc3s2)CCN1S(=O)(=O)c1ccc(OC(F)F)cc1 [Example 999]")
"< 100 nM"
>>> measured_result("CCC(F)(F)c1ccc(CNC(=O)[C@H]2CN(c3cnc4cnccc4n3)CCN2S(=O)(=O)c2ccc(N3CCOCC3)cc2)cc1 [Example 746]")
"< 100 nM"
>>> measured_result("O=C(NCc1ccc(OC(F)(F)F)cc1)[C@H]1CN(C(=O)Nc2nnc(Br)s2)CCN1S(=O)(=O)c1ccc(OC(F)(F)F)cc1 [Example 936]")
"> 1000 nM"
>>> measured_result("CCC(F)(F)c1ccc(CNC(=O)[C@H]2CN(c3ccc4nccnc4n3)CCN2S(=O)(=O)c2ccc(OC(F)(F)F)cc2)cc1 [Example 748]")
"< 100 nM"
